target-or-test-system: UniProt P11229
Sequence (P11229 whole entry): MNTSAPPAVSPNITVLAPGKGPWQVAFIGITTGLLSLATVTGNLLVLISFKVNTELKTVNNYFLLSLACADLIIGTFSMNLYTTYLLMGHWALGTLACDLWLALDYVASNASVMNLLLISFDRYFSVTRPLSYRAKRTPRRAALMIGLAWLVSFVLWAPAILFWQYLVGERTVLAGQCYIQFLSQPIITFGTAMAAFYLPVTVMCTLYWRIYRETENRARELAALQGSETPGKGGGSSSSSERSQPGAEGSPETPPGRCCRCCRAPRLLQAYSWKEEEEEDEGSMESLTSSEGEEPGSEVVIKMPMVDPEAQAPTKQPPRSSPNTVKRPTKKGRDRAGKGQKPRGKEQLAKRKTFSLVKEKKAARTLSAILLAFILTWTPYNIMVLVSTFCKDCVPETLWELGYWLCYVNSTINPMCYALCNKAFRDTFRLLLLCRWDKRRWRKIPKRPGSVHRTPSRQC
assay-comment: Positive allosteric modulation of human muscarinic acetylcholine M1 receptor expressed in CHO cells assessed as potentiation of acetylcholine-induced calcium mobilization
Assay type: functional, cell-based
condition-label: read-out: EC50
pEC50: −log10 of the molar value.
Classification field: true (1) = pEC50 at or over 6; false (0) = pEC50 under 6.

Solved cases (2 shown):
- O=C(N[C@H]1CCCCC1=O)C1CN(Cc2ccc(-n3cccn3)cc2)c2ccccc2O1 (some centres undefined): false (0)
- O=C(NC1CCOCC1)C1CN(Cc2ccc(-n3cccn3)cc2)c2ccccc2O1 (centres undefined): false (0)

Given the entry O=C(N[C@H]1CCCC[C@@H]1O)C1CN(Cc2ccc(-n3cccc3)nc2)c2ccccc2O1 (some centres undefined) , answer whether its pEC50 meets or surpasses 6.
true (1)

====

target-or-test-system: Muscarinic acetylcholine receptor M1 (Homo sapiens)
Sequence (P11229 whole entry): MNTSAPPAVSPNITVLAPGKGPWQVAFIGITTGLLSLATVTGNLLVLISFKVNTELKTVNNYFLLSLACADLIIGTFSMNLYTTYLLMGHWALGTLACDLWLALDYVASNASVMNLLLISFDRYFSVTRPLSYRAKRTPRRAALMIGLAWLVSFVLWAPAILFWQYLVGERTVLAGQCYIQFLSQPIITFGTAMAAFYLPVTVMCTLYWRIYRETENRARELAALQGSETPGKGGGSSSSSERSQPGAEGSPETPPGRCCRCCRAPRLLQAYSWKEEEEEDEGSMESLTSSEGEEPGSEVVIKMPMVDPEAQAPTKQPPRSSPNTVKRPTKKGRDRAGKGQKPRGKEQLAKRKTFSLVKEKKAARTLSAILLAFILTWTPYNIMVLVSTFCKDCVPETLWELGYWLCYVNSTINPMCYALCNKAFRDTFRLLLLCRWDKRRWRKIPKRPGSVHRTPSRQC
assay-comment: Positive allosteric modulation of human muscarinic acetylcholine M1 receptor expressed in CHO cells assessed as potentiation of acetylcholine-induced calcium mobilization
Type: functional, cell-based
condition-label: read-out: EC50
The label is Satisfied for EC50 below 0.8 µM and Not satisfied for EC50 equal to or exceeding 0.8 µM.

Solved cases (3 shown):
• CN(C)c1ccc(CN2CC(C(=O)N[C@H]3CCCC[C@@H]3O)Oc3ccccc32)cn1 (stereo partly drawn) = Not satisfied
• O=C(Nc1ncccc1O)C1CN(Cc2ccc(-n3cccn3)cc2)c2ccccc2O1 (stereo not drawn) = Satisfied
• O=C(N[C@H]1CCCC[C@@H]1O)C1CN(Cc2ccc(-n3cccn3)cc2)c2ccccc2O1 (mixture of isomers) = Not satisfied

Is it true that EC50 reported for O=C(N[C@H]1CCCC[C@@H]1O)C1CN(Cc2ccc(-n3cccn3)cc2F)c2ccccc2O1 (mixture of isomers) is less than 0.8 µM?
Not satisfied

Is it true that EC50 reported for O=C(N[C@H]1CCCC[C@@H]1O)C1CN(Cc2ccc(-n3ccnc3)nc2)c2ccccc2O1 (stereo partly drawn) is less than 0.8 µM?
Satisfied

Is it true that EC50 reported for Cn1nccc1-c1ccc(CN2CC(C(=O)N[C@H]3CCCC[C@@H]3O)Oc3ccccc32)cn1 (stereo partly drawn) is less than 0.8 µM?
Not satisfied

Is it true that EC50 reported for O=C(N[C@H]1CCCC[C@@H]1O)C1CN(Cc2ccc(Br)nc2)c2ccccc2O1 (stereo partly drawn) is less than 0.8 µM?
Not satisfied
